measurement.target: T1, hPD-1-his (human, UniProt Q15116 25-167)
T1 construct: domain: IgV domain; monomer in solution; biotin-labelled where captured by streptavidin; also called biotin-hPD-1-his
T1 sequence (Q15116 other isoform, or with tags, fused parts or gaps limits assumed): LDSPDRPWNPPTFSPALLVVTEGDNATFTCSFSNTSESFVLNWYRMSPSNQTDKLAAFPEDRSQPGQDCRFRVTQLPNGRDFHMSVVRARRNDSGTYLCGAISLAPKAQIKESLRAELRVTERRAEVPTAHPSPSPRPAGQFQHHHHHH
test.description: SPR, Exp. 2
pKd: −log10 of the molar value.
measured.property: pKd

Req: What does the record list as pKd for 31B1 (antibody, V domains shown, also called 780_38; 33B1 and 31B2 (apparent misprints)) VH: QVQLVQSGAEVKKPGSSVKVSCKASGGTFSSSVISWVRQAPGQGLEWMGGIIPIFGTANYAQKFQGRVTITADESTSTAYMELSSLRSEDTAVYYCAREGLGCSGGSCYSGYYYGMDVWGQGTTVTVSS VL: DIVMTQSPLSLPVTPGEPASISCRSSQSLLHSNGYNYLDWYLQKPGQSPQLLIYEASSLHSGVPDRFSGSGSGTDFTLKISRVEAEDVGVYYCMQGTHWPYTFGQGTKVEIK ?
Resp: > 11.00
